Attribution: ChEMBL document CHEMBL1201862

Tested on: KM-20L2
testName: NCI tumour cell line growth inhibition, 48 h
Active and inactive are the calls of the source. Cut-off read from the data, not from the text of the source: active = GI50 up to about 1.1 µM and inactive = higher.
Below, each of the molecules is paired with its reported GI50 value.

Enquiry: Checklist item: GI50 tested on KM-20L2, entry CC(=O)c1sc(Nc2nnc(-c3ccc(-c4nnc(Nc5nc(C)c(C(C)=O)s5)o4)cc3)o2)nc1C , value?
Return: > 100 µM (inactive)

---

System: NCI-H460
testName: NCI tumour cell line growth inhibition, 48 h
The source made the active and inactive calls. No stated cut-off is given here; in the data, active = GI50 up to about 1.1 µM and inactive = higher.
Below, each of the molecules is paired with its reported GI50 value.

Enquiry: Can you share its GI50? I mean this molecule: NCCSc1cc(O)c2c(c1N)C(=O)c1ccccc1C2=O
Return: 36 µM (inactive)

Enquiry: Input Nc1ccn(CC(CO)CC(c2ccccc2)P(=O)(O)O)c(=O)n1 (centres undefined)
Return: > 100 µM (inactive)

Enquiry: Input CCC1CN2CCc3cc(OC)c(OC)cc3C2CC1CC1c2cc(OC)c(OC)cc2CCN1C(=O)C(Cc1c[nH]c2ccccc12)NC(=O)OC(C)(C)C (centres undefined)
Return: 2.39 µM (inactive)

// next entry
Enquiry: Can you share its GI50? I mean this molecule: CSC(=O)C[C@@]12O[C@@H]([C@@H](C)C3CCC4[C@@H]5C(O)CC6=CC(=O)C=C[C@]6(C)C5CC[C@@]43C)C[C@](C)(O1)C(C)(C)O2 (some centres undefined)
Return: 19.1 µM (inactive)

---

System: OVCAR-3
testName: NCI tumour cell line growth inhibition, 48 h
Activity calls are given as the source filed them. Rule as the data show it: active = GI50 up to about 1.1 µM and inactive = higher.
readoutType: GI50

A selection of reference data follows.
Enquiry: Can you share its GI50? I mean this compound: C=C1C(=O)OC2/C=C(\C=O)CC/C=C(\C)C(O)C[C@@H]12 (some centres not stated)
Return: 9.46 µM (inactive)

Enquiry: Input COc1cccc(C2SC(=N)Nc3c2c(C)nn3C(=O)c2ccccc2O)c1 (configuration not stated)
Return: > 3.65 µM (inactive)

Others:
Enquiry: Can you share its GI50? I mean this compound: CCSc1nnc(-c2ccccc2)nc1Cc1ccc(OC)cc1
Return: 88.9 µM (inactive)

---

Tested on: HT-29
testName: NCI tumour cell line growth inhibition, 48 h
Activity calls are given as the source filed them. Rule as the data show it: active = GI50 up to about 1.1 µM and inactive = higher.
Below, each of the compounds is paired with its reported GI50 value.

Enquiry: Can you share its GI50? I mean this compound: CSc1ccc(/C=C2\N=C(c3ccccc3)N(NC(=O)c3c(Cl)c(Cl)c(Cl)c(Cl)c3-c3nc4ccccc4[nH]3)C2=O)cc1
Return: 36.2 µM (inactive)

Enquiry: Input O=C(OCc1ccccc1)C1(N2CN(C3(C(=O)OCc4ccccc4)CCCC3)CN(C3(C(=O)OCc4ccccc4)CCCC3)C2)CCCC1
Return: > 10 µM (inactive)

Enquiry: Input COc1ccc(-c2cc(O)c3cc(Cl)ccc3n2)cc1
Return: > 100 µM (inactive)

Enquiry: Input CCOC(=O)C(=O)Nc1c(CC)cccc1C(C)C
Return: > 100 µM (inactive)

Enquiry: Input Cn1cnc([N+](=O)[O-])c1Sc1nc(N)nc2c1ncn2[C@H]1C[C@H](O)[C@@H](CO)O1
Return: 3.54 µM (inactive)

Others:
Enquiry: Can you share its GI50? I mean this compound: NC1CC(Cl)c2c(Cl)sc(Cl)c21 (stereo unspecified)
Return: > 100 µM (inactive)

Enquiry: Input COC(=O)N/N=C(\c1nc2ccc(Cl)cc2nc1O)C(O)c1ccc([N+](=O)[O-])cc1 (stereo unspecified)
Return: > 100 µM (inactive)

Enquiry: Input O=C(O)CC1(CC(=O)O)Nc2ccccc2SC1=O
Return: > 100 µM (inactive)
